Overview of reported remaining activity at 1700 µM across a group of compounds:
Target: E. coli DdlB enzyme (D-alanine:D-alanine ligase) (Escherichia coli)
Construct: made in house; host or cells: E. coli
Assay: biochemical
Conditions: tested concentration 1.7 mM; read-out: DdlB RA
Kindly answer with a numeric value in %, unit omitted.

Name the recorded remaining activity at 1700 µM for NS(=O)(=O)c1ccc(CNC(=O)N2CCOCC2)cc1 [Compound Y030-3729] .
104

// query remaining activity at 1700 µM value for entry c1cnc(-c2nc(C3CCNC3)no2)cn1 (stereo not drawn) [Compound S069-3207]
95

Using the record for O=S(=O)(O)c1nc2ccccc2n1Cc1ccccc1 [Compound 8019-7098] , report its remaining activity at 1700 µM.
102

More entries:
GET /values?readout=remaining activity at 1700 µM&item= CNC(=O)CCN1C(=O)CSC1c1ccccc1Cl (stereo not drawn) [Compound V026-8598]
109

Need remaining activity at 1700 µM, item O=c1c(NCCN2CCCCCC2)c(-c2ccccc2)c1=O [Compound E470-0490]
88

I am curious: what remaining activity at 1700 µM value has been reported for O=C(c1ccccc1)N1CCC(c2nnc(C3CC3)[nH]2)CC1 [Compound T630-2594] ?
91

Look up remaining activity at 1700 µM for this compound: NS(=O)(=O)c1ccc(CNC(=O)c2ccncc2)cc1 [Compound Y205-1594]
102

Tell me the measured remaining activity at 1700 µM of O=c1c(O)c(Nc2ccc(CN3CCCCC3)cc2)c1=O [Compound G317-0765] , please.
92

Please give the measured remaining activity at 1700 µM for this compound: CCc1cccc(NC(=O)c2ccc3cccc(O)c3n2)c1 [Compound G900-0169]
69

====

Molecular target: E. coli DdlB enzyme (D-alanine:D-alanine ligase) (Escherichia coli, UniProt P07862)
Construct: made in house; host or cells: E. coli
Test: biochemical
Conditions: tested concentration 2.9 mM; read-out: DdlB RA
Listed here: items and their measured remaining activity at 2900 µM.
Give the value, in units of %, as a plain number.

Reference set, count: 5
Query the reported remaining activity at 2900 µM for E. coli DdlB enzyme (D-alanine:D-alanine ligase) (Escherichia coli, UniProt P07862); item: Oc1nonc1N1CCOCC1 [Compound 8018-8552]
92

Recall the recorded remaining activity at 2900 µM for CC(C)(C(=O)O)C1CCOCC1 [Compound S424-0502] with E. coli DdlB enzyme (D-alanine:D-alanine ligase) (Escherichia coli, UniProt P07862) and state it.
98

Give recorded remaining activity at 2900 µM with E. coli DdlB enzyme (D-alanine:D-alanine ligase) (Escherichia coli, UniProt P07862) for the following molecule: CC#CC(=O)NCc1cc(F)ccc1F [Compound T001-0919]
89

Please provide the recorded remaining activity at 2900 µM for O=C(O)Cn1ccc(=O)[nH]c1=O [Compound D702-0091] , tested on E. coli DdlB enzyme (D-alanine:D-alanine ligase) (Escherichia coli, UniProt P07862).
89

State its remaining activity at 2900 µM on E. coli DdlB enzyme (D-alanine:D-alanine ligase) (Escherichia coli, UniProt P07862): CC#CC(=O)N(C)CCc1cn[nH]c1 [Compound T001-1282]
86

***
Enter reported remaining activity at 2900 µM observed with E. coli DdlB enzyme (D-alanine:D-alanine ligase) (Escherichia coli, UniProt P07862) for OCCn1cc(Br)cn1 [Compound Y504-8814]
97
